Assay: Thermodynamic solubility of voruciclib HCl by the shake-flask method (HPLC)
Assay type: physicochemical
Settings: cumene, organic solvent or mixture, thermodynamic from solid, Cumene; RT, 24 h, amorphous API, HPLC; read-out: Solubility
Counter-ions that a name gives are not always drawn.

{"columns": ["Compound", "solubility at 24 h"],
 "data": [
  ["CN1CC[C@@H](c2c(O)cc(O)c3c(=O)cc(-c4ccc(C(F)(F)F)cc4Cl)oc23)[C@@H]1CO [voruciclib HCl]", "< 0.1 mg/mL"]
]}

* * *

Test: Solubility of salts in water and in 0.2 M phosphate buffer pH 6 at 37° C. after 4 hours (HPLC-DAD)
Assay type: physicochemical
Settings: water, 37° C., about 5 mg salt, up to 1 mL, pH at end of equilibration
Entries annotated with measured pH (4 h)
Measured Quantity: pH (4 h)

{"columns": ["Molecule", "Endpoint Result"],
 "data": [
  ["CN1CCC(c2c(O)cc(O)c3c(=O)cc(-c4ccc(C(F)(F)F)cc4Cl)oc23)C1CO.CN1CCC(c2c(O)cc(O)c3c(=O)cc(-c4ccc(C(F)(F)F)cc4Cl)oc23)C1CO.O=C(OC(C(=O)O)C(OC(=O)c1ccccc1)C(=O)O)c1ccccc1 (centres unmarked)", 3.5],
  ["CN1CC[C@@H](c2c(O)cc(O)c3c(=O)cc(-c4ccc(C(F)(F)F)cc4Cl)oc23)[C@@H]1CO.CN1CC[C@@H](c2c(O)cc(O)c3c(=O)cc(-c4ccc(C(F)(F)F)cc4Cl)oc23)[C@@H]1CO.O=S(=O)(O)c1cccc2c(S(=O)(=O)O)cccc12", 3.4],
  ["CN1CC[C@@H](c2c(O)cc(O)c3c(=O)cc(-c4ccc(C(F)(F)F)cc4Cl)oc23)[C@@H]1CO.O=C(O)CC(=O)O", 3.5],
  ["CN1CCC(c2c(O)cc(O)c3c(=O)cc(-c4ccc(C(F)(F)F)cc4Cl)oc23)C1CO.O=P(O)(O)O (centres unmarked)", 3.7],
  ["CN1CC[C@@H](c2c(O)cc(O)c3c(=O)cc(-c4ccc(C(F)(F)F)cc4Cl)oc23)[C@@H]1CO.CN1CC[C@@H](c2c(O)cc(O)c3c(=O)cc(-c4ccc(C(F)(F)F)cc4Cl)oc23)[C@@H]1CO.O.O=C(O)C(=O)O", 4.3]
]}

* * *

Test: Solubility of salts in water and in 0.2 M phosphate buffer pH 6 at 37° C. after 4 hours (HPLC-DAD)
Type: physicochemical
Settings: 0.2M phosphate buffer pH 6, 37° C., about 1 mg salt in 1 mL, pH at end of equilibration
Measured Quantity: pH (4 h)

{"columns": ["Compound", "Measured Quantity", "Endpoint Result"],
 "data": [
  ["CN1CC[C@@H](c2c(O)cc(O)c3c(=O)cc(-c4ccc(C(F)(F)F)cc4Cl)oc23)[C@@H]1CO.CN1CC[C@@H](c2c(O)cc(O)c3c(=O)cc(-c4ccc(C(F)(F)F)cc4Cl)oc23)[C@@H]1CO.O=S(=O)(O)c1cccc2c(S(=O)(=O)O)cccc12 [Nds1a]", "pH (4 h)", 6.0],
  ["CN1CCC(c2c(O)cc(O)c3c(=O)cc(-c4ccc(C(F)(F)F)cc4Cl)oc23)C1CO.O=P(O)(O)O (centres unmarked) [Pho1]", "pH (4 h)", 6.0],
  ["CN1CC[C@@H](c2c(O)cc(O)c3c(=O)cc(-c4ccc(C(F)(F)F)cc4Cl)oc23)[C@@H]1CO.O=C(O)CC(=O)O [Mao1]", "pH (4 h)", 6.2],
  ["CN1CC[C@@H](c2c(O)cc(O)c3c(=O)cc(-c4ccc(C(F)(F)F)cc4Cl)oc23)[C@@H]1CO.CN1CC[C@@H](c2c(O)cc(O)c3c(=O)cc(-c4ccc(C(F)(F)F)cc4Cl)oc23)[C@@H]1CO.O.O=C(O)C(=O)O [Oxa1]", "pH (4 h)", 6.0],
  ["CN1CCC(c2c(O)cc(O)c3c(=O)cc(-c4ccc(C(F)(F)F)cc4Cl)oc23)C1CO.CN1CCC(c2c(O)cc(O)c3c(=O)cc(-c4ccc(C(F)(F)F)cc4Cl)oc23)C1CO.O=C(OC(C(=O)O)C(OC(=O)c1ccccc1)C(=O)O)c1ccccc1 (centres unmarked) [DiTr1]", "pH (4 h)", 6.0]
]}
